molecular target: human carbonic anhydrase 9 (CAIX) (human, UniProt Q16790 38-459); assay: FACS competition on HT-29 cells against tracer 3BP-2776; pIC50 category C = pIC50 6.1-7.0
Starred links: 1 amine or outer side, 2 acyl side, 3 side chain; linkers in the order of their positions; H or OH if unused. Positions of bridges follow the written chain, without caps; N, C: chain ends. Non-standard residues stand in square brackets, D forms with d. mXylylene = c1cc(C[*:1])cc(C[*:2])c1; βAla = NCCC(=O)O
Property name: pIC50

- Ac-VYCEG[dD]WLTWQC-NH2 (linker 3-12 via mXylylene; SMILES CC(=O)N[C@H](C(=O)N[C@@H](Cc1ccc(O)cc1)C(=O)N[C@H]1CSCc2cccc(c2)CSC[C@@H](C(N)=O)NC(=O)[C@H](CCC(N)=O)NC(=O)[C@H](Cc2c[nH]c3ccccc23)NC(=O)[C@H]([C@@H](C)O)NC(=O)[C@H](CC(C)C)NC(=O)[C@H](Cc2c[nH]c3ccccc23)NC(=O)[C@@H](CC(=O)O)NC(=O)CNC(=O)[C@H](CCC(=O)O)NC1=O)C(C)C, also called Ac-Val-Tyr-[Cys(3MeBn)-Glu-Gly-asp-Trp-Leu-Thr-Trp-Gln-Cys]-NH2) [3BP-3047]: 6.1 to 7 pic50

Now, please, on to the next binder.
Q) For the binder Ac-VY[dC][βAla]WLTWSC-NH2 (linker 3-10 via mXylylene; SMILES CC(=O)N[C@H](C(=O)N[C@@H](Cc1ccc(O)cc1)C(=O)N[C@@H]1CSCc2cccc(c2)CSC[C@@H](C(N)=O)NC(=O)[C@H](CO)NC(=O)[C@H](Cc2c[nH]c3ccccc23)NC(=O)[C@H]([C@@H](C)O)NC(=O)[C@H](CC(C)C)NC(=O)[C@H](Cc2c[nH]c3ccccc23)NC(=O)CCNC1=O)C(C)C, also called Ac-Val-Tyr-[cys(3mebn)-Bal-Trp-Leu-Thr-Trp-Ser-Cys]-NH2) [3BP-3604] , what pIC50 is on record?
A) 6.1 to 7 pic50
